Experiment: NCI Yeast Anticancer Drug Screen. Data for the mlh1 strain (AID 171);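 also: 0% = growth of vehicle-treated control cultures of the same strain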
Details: S. cerevisiae mlh1 strain growth inhibition; at 11.0 µM; hits give high values
Compounds without any hit were thinned out: in the full panel of roughly 79,000, 15% have a hit.
Entries and their measured growth inhibition follow.
endpoint-name: growth inhibition (%)

[
  {
    "compound": "CCCCCCCCCCCC1=C(O)C(=O)C=C(O)C1=O",
    "endpoint-name": "growth inhibition",
    "assay-value": 37
  },
  {
    "compound": "Clc1ccccc1C1OC1c1ccccc1Cl (centres undefined)",
    "endpoint-name": "growth inhibition",
    "assay-value": -35
  },
  {
    "compound": "O=C1c2ccccc2-c2n[nH]c3cccc1c23",
    "endpoint-name": "growth inhibition",
    "assay-value": 9
  },
  {
    "compound": "O=[N+]([O-])c1ccc([N+]2=NC(c3ccccc3)=NN(c3ccccc3)C2)cc1",
    "endpoint-name": "growth inhibition",
    "assay-value": 6
  },
  {
    "compound": "COc1cccc2nc3ccccc3nc12",
    "endpoint-name": "growth inhibition",
    "assay-value": -2
  },
  {
    "compound": "O=S(=O)(CCCl)c1ccccc1Cl",
    "endpoint-name": "growth inhibition",
    "assay-value": 27
  },
  {
    "compound": "NC(=S)N/N=C\\c1nccc2ccccc12",
    "endpoint-name": "growth inhibition",
    "assay-value": 34
  },
  {
    "compound": "COC(=O)c1cc(-c2ccc(C)cc2)[nH]c(=O)c1C#N",
    "endpoint-name": "growth inhibition",
    "assay-value": 0
  },
  {
    "compound": "O=[N+]([O-])c1cccc([N+](=O)[O-])c1S(=O)(=O)c1ccccc1",
    "endpoint-name": "growth inhibition",
    "assay-value": 76
  },
  {
    "compound": "Nc1ccccc1CC(O)C(=O)O (centres undefined)",
    "endpoint-name": "growth inhibition",
    "assay-value": 29
  },
  {
    "compound": "CC(=O)Cc1ccc[cH-]1.[Fe+2].c1cc[cH-]c1",
    "endpoint-name": "growth inhibition",
    "assay-value": -2
  },
  {
    "compound": "O=c1c2ccccc2ncn1COCc1ccccc1",
    "endpoint-name": "growth inhibition",
    "assay-value": -4
  },
  {
    "compound": "CCOC(=O)C1=C(C(=O)c2ccccc2)C(c2ccccc2[N+](=O)[O-])C(C(=O)c2ccccc2)=C(C(=O)OCC)N1",
    "endpoint-name": "growth inhibition",
    "assay-value": -2
  },
  {
    "compound": "CN1c2ccc(Cl)cc2C(=O)NC1c1ccc([N+](=O)[O-])s1 (centres undefined)",
    "endpoint-name": "growth inhibition",
    "assay-value": 51
  },
  {
    "compound": "N/C(=N\\OC(=O)NC(Cl)=C(Cl)Cl)c1cc(C(F)(F)F)cc(C(F)(F)F)c1",
    "endpoint-name": "growth inhibition",
    "assay-value": -14
  },
  {
    "compound": "CCCN(CCC)CC(O)c1cc(-c2ccc(Cl)cc2)nc2c(C)c(Cl)ccc12 (centres undefined)",
    "endpoint-name": "growth inhibition",
    "assay-value": 99
  },
  {
    "compound": "CCN(CC)CCN1C(=O)c2cccc3cc(OC)cc(c23)C1=O",
    "endpoint-name": "growth inhibition",
    "assay-value": -7
  },
  {
    "compound": "CN(N=O)N1C(=O)SCC(c2ccccc2)(c2ccccc2)C1=O",
    "endpoint-name": "growth inhibition",
    "assay-value": 1
  },
  {
    "compound": "NC1=NS(=O)(=O)N=C(N)C1=Cc1ccc([N+](=O)[O-])o1",
    "endpoint-name": "growth inhibition",
    "assay-value": 2
  },
  {
    "compound": "CC[C@@]1(O)C(=O)OCc2c1cc1n(c2=O)Cc2cc3c(CN(C)C)c(O)ccc3nc2-1",
    "endpoint-name": "growth inhibition",
    "assay-value": -3
  },
  {
    "compound": "CCOC(=O)c1cc([N+](=O)[O-])cc([N+](=O)[O-])c1Sc1ncnc2nc[nH]c12",
    "endpoint-name": "growth inhibition",
    "assay-value": 2
  },
  {
    "compound": "COC(=O)CSSCc1ccc([N+](=O)[O-])cc1",
    "endpoint-name": "growth inhibition",
    "assay-value": 31
  },
  {
    "compound": "O=[N+]([O-])c1cccc2nccc(NCCCO)c12",
    "endpoint-name": "growth inhibition",
    "assay-value": -3
  },
  {
    "compound": "CC1=C(SCCO)C(=O)c2ccccc2C1=O",
    "endpoint-name": "growth inhibition",
    "assay-value": 7
  },
  {
    "compound": "CC(C)/C(Cl)=N\\OC(=O)Nc1cccc(Cl)c1",
    "endpoint-name": "growth inhibition",
    "assay-value": 0
  },
  {
    "compound": "CCCCCCCCCCCCCCCCCCN(C)CC(COP(=O)([O-])OCC[N+](C)(C)C)OC (centres undefined)",
    "endpoint-name": "growth inhibition",
    "assay-value": 98
  },
  {
    "compound": "O=C1C=CC(=O)c2c(O)c(Nc3ccc(OC(F)(F)F)cc3)c(Cl)c(O)c21",
    "endpoint-name": "growth inhibition",
    "assay-value": 13
  },
  {
    "compound": "CCc1ccc(NS(=O)(=O)c2ccccc2)c([N+](=O)[O-])c1",
    "endpoint-name": "growth inhibition",
    "assay-value": 7
  },
  {
    "compound": "Cc1ccc(NN(NC(=O)OC(C)C)C(=O)OC(C)C)cc1",
    "endpoint-name": "growth inhibition",
    "assay-value": 5
  },
  {
    "compound": "O=C1C(Nc2ccccc2)=C(Oc2ccccc2)C(=O)c2ccccc21",
    "endpoint-name": "growth inhibition",
    "assay-value": 1
  },
  {
    "compound": "CN1Cc2ccccc2/C=C\\c2ccccc21",
    "endpoint-name": "growth inhibition",
    "assay-value": -1
  },
  {
    "compound": "FC(F)(F)c1nc2nc(Cl)c(Cl)nc2n1CCCN1CCOCC1",
    "endpoint-name": "growth inhibition",
    "assay-value": 14
  },
  {
    "compound": "COC(=O)c1ccc([N+](=O)[O-])c(O)c1",
    "endpoint-name": "growth inhibition",
    "assay-value": 7
  },
  {
    "compound": "O=C(c1ccc(Cl)cc1)C1OC12C(=O)Nc1ccccc12 (centres undefined)",
    "endpoint-name": "growth inhibition",
    "assay-value": 99
  },
  {
    "compound": "CCCCCCCCNC(=O)C1=C(C)NC(C)=C(C(=O)NCCCCCCCC)C1",
    "endpoint-name": "growth inhibition",
    "assay-value": 0
  },
  {
    "compound": "Cc1ccc(-n2cc(-c3ccc(Cl)cc3)c(C#N)c2N)cc1",
    "endpoint-name": "growth inhibition",
    "assay-value": -1
  },
  {
    "compound": "CCN(CC)C(=S)N/N=C(/C)c1cccc(/C(C)=N\\NC(=S)N(CC)CC)n1",
    "endpoint-name": "growth inhibition",
    "assay-value": 9
  },
  {
    "compound": "O=C(CC(=O)n1nc(-c2ccccc2)c(N=Nc2ccccc2C(=O)O)c1-c1ccccc1)Nc1ccc(Cl)cc1",
    "endpoint-name": "growth inhibition",
    "assay-value": -3
  },
  {
    "compound": "O=C(Nc1ccccc1)OCCc1ccc(Cl)c(Cl)c1",
    "endpoint-name": "growth inhibition",
    "assay-value": 22
  }
]
